Each entry below lists one item and its recorded ALOMY damage score, application post-emergence value.
Test system: Alopecurus myosuroides
Assay: Post-emergence herbicidal activity, ALOMY
Type: in vivo
Parameters: key: 5=total damage to plant; 0=no damage to plant
Details: 1000 g/Ha, post-emergence spray (8 days cultivation), evaluated after 13 days, scale 0-5
Procedure: Seeds of a variety of test species were sown in standard soil in pots. […] After 13 days, the test was evaluated (5=total damage to plant; 0=no damage to plant).
measuredQuantity: ALOMY damage score, application post-emergence

compound="CON1C(=O)N(c2ccc(C(=O)NC(C)(C)C)nn2)C(O)C1C (stereo not shown) [Example A14]" targetentity="Alopecurus myosuroides" observed=5
compound="CCOC1C(O)N(c2cc(C(C)(C)F)c(Cl)nn2)C(=O)N1C (stereo not shown) [Example A9]" targetentity="Alopecurus myosuroides" observed=5
compound="COC1C(O)N(c2cc(C(C)(C)F)c(Cl)nn2)C(=O)N1C (stereo not shown) [Example A8]" targetentity="Alopecurus myosuroides" observed=4
compound="CC1C(O)N(c2cc(C(C)(F)F)c(Cl)nn2)C(=O)N1C (stereo not shown) [Example A11]" targetentity="Alopecurus myosuroides" observed=5
compound="CON1C(=O)N(c2cc(C(C)(F)F)c(Cl)nn2)C(O)C1C (stereo not shown) [Example A12]" targetentity="Alopecurus myosuroides" observed=5
compound="CN1CC(O)N(c2cc(C(F)(F)F)cnn2)C1=O (stereo not shown) [Example A7]" targetentity="Alopecurus myosuroides" observed=5
compound="CCOC1C(O)N(c2cc(C(C)(F)F)c(Cl)nn2)C(=O)N1C (stereo not shown) [Example A10]" targetentity="Alopecurus myosuroides" observed=5
compound="CC1C(O)N(c2cc(C(C)(C)F)c(-c3ccccc3)nn2)C(=O)N1C (stereo not shown) [Example A3]" targetentity="Alopecurus myosuroides" observed=4
compound="CON1C(=O)N(c2cc(C(C)(C)F)c(Cl)nn2)C(O)C1C (stereo not shown) [Example A6]" targetentity="Alopecurus myosuroides" observed=4
compound="CC1C(O)N(c2cc(C(C)(C)F)c(Cl)nn2)C(=O)N1C (stereo not shown) [Example A2]" targetentity="Alopecurus myosuroides" observed=4

---

Test system: Setaria faberi
Test: Pre-emergence herbicidal activity, SETFA
Format: in vivo
Set-up: key: 5=total damage to plant; 0=no damage to plant
Conditions: 1000 g/Ha, pre-emergence spray, evaluated after 13 days, scale 0-5
measuredQuantity: SETFA damage score, application pre-emergence

compound="CCOC1C(O)N(c2cc(C(F)(F)F)c(Cl)nn2)C(=O)N1C (stereo not shown)" targetentity="Setaria faberi" observed=5
compound="CN1CC(O)N(c2cc(C(F)(F)F)c(Cl)nn2)C1=O (stereo not shown)" targetentity="Setaria faberi" observed=5
compound="CC1C(O)N(c2cc(C(C)(F)F)c(Cl)nn2)C(=O)N1C (stereo not shown)" targetentity="Setaria faberi" observed=5
compound="CON1C(=O)N(c2cc(C(C)(C)F)c(Cl)nn2)C(O)C1C (stereo not shown)" targetentity="Setaria faberi" observed=4

---

Reported SETFA damage score, application pre-emergence values are given for each entry in this list.
Tested on: Setaria faberi
Assay: Pre-emergence herbicidal activity, SETFA
Format: in vivo
Parameters: key: 5=total damage to plant; 0=no damage to plant
Settings: 1000 g/Ha, pre-emergence spray, evaluated after 13 days, scale 0-5
measuredQuantity: SETFA damage score, application pre-emergence

compound="CN1CC(O)N(c2cc(C(F)(F)F)cnn2)C1=O (stereo not shown) [Example A7]" observed=5
compound="CC1C(O)N(c2ccc(C(=O)NC(C)(C)C)nn2)C(=O)N1C (stereo not shown) [Example A15]" observed=4
compound="CCOC1C(O)N(c2cc(C(C)(C)F)c(Cl)nn2)C(=O)N1C (stereo not shown) [Example A9]" observed=5
compound="CC1C(O)N(c2cc(C(C)(C)F)c(Cl)nn2)C(=O)N1C (stereo not shown) [Example A2]" observed=5

---

System: Setaria faberi
Assay: Pre-emergence herbicidal activity, SETFA
Assay type: in vivo
Design: key: 5=total damage to plant; 0=no damage to plant
Conditions: 1000 g/Ha, pre-emergence spray, evaluated after 13 days, scale 0-5
Reported SETFA damage score, application pre-emergence values for a set of compounds
measuredQuantity: SETFA damage score, application pre-emergence

compound="COC1C(O)N(c2cc(C(C)(C)F)c(Cl)nn2)C(=O)N1C (stereo not shown)" observed=5
compound="CN1CC(O)N(c2cc(C(C)(F)F)cnn2)C1=O (stereo not shown)" observed=5
compound="CN1CC(O)N(c2cc(C(C)(C)F)c(Cl)nn2)C1=O (stereo not shown)" observed=5
compound="CN1CC(O)N(c2cc(C(C)(C)F)cnn2)C1=O (stereo not shown)" observed=4
compound="CCOC1C(O)N(c2cc(C(F)(F)F)cnn2)C(=O)N1C (stereo not shown)" observed=5
compound="CC1C(O)N(c2ccc(C(=O)NC(C)(C)C#N)nn2)C(=O)N1C (stereo not shown)" observed=4
compound="CC1C(O)N(c2cc(C(F)(F)F)c(Cl)nn2)C(=O)N1C (stereo not shown)" observed=3
